assayTarget: DNA dC->dU-editing enzyme APOBEC-3F (Homo sapiens) (UniProt Q8IUX4)
Sequence (Q8IUX4 whole entry, looked up): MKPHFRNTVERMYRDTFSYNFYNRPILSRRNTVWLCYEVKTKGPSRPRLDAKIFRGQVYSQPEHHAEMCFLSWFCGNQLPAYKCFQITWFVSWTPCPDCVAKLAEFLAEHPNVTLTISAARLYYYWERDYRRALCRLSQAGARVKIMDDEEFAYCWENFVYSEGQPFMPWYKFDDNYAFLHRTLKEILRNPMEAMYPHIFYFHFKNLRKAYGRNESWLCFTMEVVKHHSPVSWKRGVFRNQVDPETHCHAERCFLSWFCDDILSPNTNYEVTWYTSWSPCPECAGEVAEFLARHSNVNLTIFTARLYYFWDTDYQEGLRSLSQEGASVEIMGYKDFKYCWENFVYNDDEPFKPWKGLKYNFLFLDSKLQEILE
experimentalDetails: qHTS for inhibitors of Vif-A3F interactions: Cherry picks; further: potency means the concentration at half of the fitted maximal effect; nearly all actives have a fitted effect of over 70% in size
setupConditions: HeLa A3F-eYFP + Vif (tagged APOBEC3F with the HIV-1 protein that degrades it), eYFP fluorescence, 24 h
Hit rate of the full screen: of about 2,100 compounds, about 590 (28%) were called active. Inconclusive results (about 42%) are left out. The list shows a part of the results.
measurementLabel: Potency

Print DNA dC->dU-editing enzyme APOBEC-3F (Homo sapiens) (UniProt Q8IUX4) Potency for Cc1cc(N/N=C/c2ccc([N+](=O)[O-])o2)nc2ccccc12 .
16.4 µM (active)

Print DNA dC->dU-editing enzyme APOBEC-3F (Homo sapiens) (UniProt Q8IUX4) Potency for Cn1c(/C=C/c2ccc([N+](=O)[O-])o2)nc2ccccc2c1=O .
16.4 µM (active)

Print DNA dC->dU-editing enzyme APOBEC-3F (Homo sapiens) (UniProt Q8IUX4) Potency for CC(=O)N1CCc2nc3sc(C(=O)c4ccc(F)cc4)c(N)c3c(C(F)(F)F)c2C1 .
20.6 µM (active)

Print DNA dC->dU-editing enzyme APOBEC-3F (Homo sapiens) (UniProt Q8IUX4) Potency for Oc1ccc(-c2nc(-c3ccc(O)c(O)c3)cs2)cc1 .
4.44 µM (active)

Print DNA dC->dU-editing enzyme APOBEC-3F (Homo sapiens) (UniProt Q8IUX4) Potency for COc1ccc(C(=O)c2sc3nc4c(c(C(F)(F)F)c3c2N)CN(C(C)=O)CC4)cc1OC .
23.1 µM (active)
